Data provenance is patent US5994334A.

# test_system: Human Testicular C17,20-lyase (Homo sapiens, UniProt P05093)
# Construct: incubating human testicular microsomes; from tissue; host or cells: human testis, microsomes
# procedure_summary: Inhibition of human testicular C17,20-lyase (pregnenolone substrate, testicular microsomes)
# Format: biochemical
# condition_description: Table 3; second figure of pair; CI = complete inhibition; read-out: IC50 lyase
# Protocol: The conversion of radiolabeled pregnenolone to 17α-hydroxypregnenolone and DHEA by 17α-hydroxylase/C17,20 -lyase was measured by incubating human testicular microsomes with different concentration of test compounds. Reverse phase HPLC was used to separate and accurately quantify the amount of substrate and metabolites. The 17α-hydroxylase and C17,20 -lyase activities were calculated separately. […]
Kindly supply the reported pIC50 values for the records listed here.
// returns pIC50 (minus log10 of molar concentration), number only

If you can, please state the reported pIC50 value of "C[C@]12CC[C@H]3[C@@H](CCC4=CC(=O)CC[C@@]43C)[C@@H]1CC[C@@H]2c1c[nH]cn1" .
8.25

GET /values?readout=pIC50&item= "CC(=O)O[C@H]1CC[C@@]2(C)C(=CC[C@@H]3[C@@H]2CC[C@]2(C)C(c4c[nH]cn4)=CC[C@@H]32)C1"
7.60

# get_value(readout='pIC50', item= "C[C@]12CC[C@H]3[C@@H](CC=C4C[C@@H](O)CC[C@@]43C)[C@@H]1CC[C@@H]2c1c[nH]cn1" )
7.65

====

Kindly supply the reported inhibition at 0.4 µM values for the records listed here.
# test_system: Human Testicular 17α-Hydroxylase (Homo sapiens)
# Construct: incubating human testicular microsomes; from tissue; host or cells: human testis, microsomes
# procedure_summary: Inhibition of human testicular 17α-hydroxylase (pregnenolone substrate, testicular microsomes)
# Type: biochemical
# condition_description: 400 nM; first figure of pair; read-out: % Inhibition 17α-hydroxylase, [I] = 400 nM
Give the quantity in %, number only.

Look at this molecule and give its reported inhibition at 0.4 µM. "C[C@]12CC[C@H]3[C@@H](CCC4=CC(=O)CC[C@@]43C)[C@@H]1CC[C@@H]2c1ncc[nH]1"
43.5

# get_value(readout='inhibition at 0.4 µM', item= "C[C@]12CC[C@H]3[C@@H](CC=C4C[C@@H](O)CC[C@@]43C)[C@@H]1CC[C@@H]2c1c[nH]c(-c2ccccc2)n1" )
20.9

What value of measured inhibition at 0.4 µM is listed for "Cc1nc([C@H]2CC[C@H]3[C@@H]4CC=C5C[C@@H](O)CC[C@]5(C)[C@H]4CC[C@]23C)co1" ?
26.5

Which value of inhibition at 0.4 µM has been reported for "C[C@]12CC[C@H]3[C@@H](CC=C4C[C@@H](O)CC[C@@]43C)[C@@H]1CC[C@@H]2c1ncc[nH]1" in the records?
23.7

State the recorded inhibition at 0.4 µM for this entry: "CC(=O)O[C@H]1CC[C@@]2(C)C(=CC[C@@H]3[C@@H]2CC[C@]2(C)C(c4c[nH]cn4)=CC[C@@H]32)C1"
89.3

====

# test_system: human 17α-hydroxylase/C17,20-lyase (Homo sapiens, UniProt P05093)
# Construct: incubating human testicular microsomes; from tissue; host or cells: human testis, microsomes
# Sequence (P05093 1-508): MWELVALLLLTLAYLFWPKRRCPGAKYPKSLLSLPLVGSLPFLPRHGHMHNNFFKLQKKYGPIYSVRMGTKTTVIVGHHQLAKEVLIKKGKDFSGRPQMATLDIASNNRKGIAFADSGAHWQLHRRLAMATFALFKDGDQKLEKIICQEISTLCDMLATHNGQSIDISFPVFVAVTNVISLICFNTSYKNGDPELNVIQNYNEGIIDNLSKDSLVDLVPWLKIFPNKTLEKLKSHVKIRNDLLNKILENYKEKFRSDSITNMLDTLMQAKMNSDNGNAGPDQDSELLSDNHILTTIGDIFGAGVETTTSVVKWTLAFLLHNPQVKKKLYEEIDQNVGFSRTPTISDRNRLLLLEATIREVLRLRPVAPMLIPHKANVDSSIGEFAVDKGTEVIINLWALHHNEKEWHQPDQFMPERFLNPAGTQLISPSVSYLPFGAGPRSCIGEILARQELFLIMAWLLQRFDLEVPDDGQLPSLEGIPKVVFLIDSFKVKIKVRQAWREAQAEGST
# procedure_summary: Inhibition of human testicular 17α-hydroxylase/C17,20-lyase (enzyme complex as a whole)
# Assay type: biochemical
# condition_description: NI = no inhibition
measure: inhibition of 17α-hydroxylase/C17,20-lyase (in words)

structure_smiles	recorded_measurement
C[C@@H](N)[C@H]1CC[C@H]2[C@@H]3CC=C4C[C@@H](O)CC[C@]4(C)[C@H]3CC[C@]12C	poor inhibition
CC(=O)[C@@]1(Br)CC[C@H]2[C@@H]3CC=C4C[C@@H](O)CC[C@]4(C)[C@H]3CC[C@@]21C	poor inhibition
